- target_desc: T1, human CD33 I198A (human, UniProt P20138 18-364)
- T1 construct: the '-,' is not explained
- experiment: alanine scan, flow cytometry, HEK293-T;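 also: antibody binding to each alanine-substituted CD33 mutant expressed transiently in HEK293-T, read as fluorescence minus background, mean of duplicates, relative to wild-type CD33 set as 100%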
Below is a list of entries, each paired with its recorded Mean % WT Binding value.
In your response, the unit should come after the numeric value.

Example entries begin here.
| binder | recorded_value |
| --- | --- |
| Refmab #1 (antibody, V domains shown, In the alanine scan antibodies were used as IgG or Fab; also called hP67.6) VH: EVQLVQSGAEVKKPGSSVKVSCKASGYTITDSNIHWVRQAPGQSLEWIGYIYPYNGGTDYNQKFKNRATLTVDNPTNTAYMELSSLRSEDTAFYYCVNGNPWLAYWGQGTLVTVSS VL: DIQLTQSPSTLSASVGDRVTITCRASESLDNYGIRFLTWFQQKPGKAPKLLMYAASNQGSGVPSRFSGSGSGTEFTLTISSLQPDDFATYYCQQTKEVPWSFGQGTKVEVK | 86.7% |
| Refmab #3 (antibody, V domains shown, In the alanine scan antibodies were used as IgG or Fab) VH: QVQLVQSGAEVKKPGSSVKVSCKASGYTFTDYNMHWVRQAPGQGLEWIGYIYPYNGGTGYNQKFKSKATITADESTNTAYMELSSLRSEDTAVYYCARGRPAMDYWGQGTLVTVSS VL: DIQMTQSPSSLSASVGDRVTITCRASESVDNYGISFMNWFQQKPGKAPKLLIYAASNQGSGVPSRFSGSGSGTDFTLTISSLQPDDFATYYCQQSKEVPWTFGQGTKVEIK | 91.2% |
| Refmab #2 (antibody, V domains shown, In the alanine scan antibodies were used as IgG or Fab) VH: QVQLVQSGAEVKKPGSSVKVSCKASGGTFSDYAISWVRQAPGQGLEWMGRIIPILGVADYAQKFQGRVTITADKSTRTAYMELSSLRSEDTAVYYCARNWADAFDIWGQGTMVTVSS VL: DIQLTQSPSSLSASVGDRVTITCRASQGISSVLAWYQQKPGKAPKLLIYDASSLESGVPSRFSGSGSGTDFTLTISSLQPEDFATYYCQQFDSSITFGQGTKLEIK | 114% |

Name the reported Mean % WT Binding value associated with the binder Refmab #4 (antibody, V domains shown, In the alanine scan antibodies were used as IgG or Fab) VH: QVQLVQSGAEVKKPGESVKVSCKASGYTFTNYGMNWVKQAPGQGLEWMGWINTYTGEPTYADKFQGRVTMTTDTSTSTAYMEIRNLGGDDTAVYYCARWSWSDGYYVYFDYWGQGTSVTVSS VL: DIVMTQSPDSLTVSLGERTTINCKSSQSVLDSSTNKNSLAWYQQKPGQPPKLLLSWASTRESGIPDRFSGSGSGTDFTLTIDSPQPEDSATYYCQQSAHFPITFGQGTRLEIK 94.4%
